# assayed.target: BRD4 (BD1+BD2) bromodomain (Homo sapiens (Human))
# assay.overview: BRD4 binding inhibition (AlphaScreen, GST-BRD4 vs tetraacetylated histone H4 peptide)
# assay.conditions: GST-BRD4 (BD1+BD2) vs biotinylated acetyl-histone H4 peptide, AlphaScreen; read-out: BRD4 IC50
pIC50: −log10 of the molar value.

[
  {
    "compound": "COCCOc1cc2nc(NCCCCNC(=O)NC(C)(C)C)c3nnc(C)n3c2cc1OCCOC [Example 169]",
    "pIC50": 7.39
  },
  {
    "compound": "COc1cc2nc(NCCCCNC(=O)c3ccccn3)c3nnc(C)n3c2cc1OC [Example 105]",
    "pIC50": 7.22
  },
  {
    "compound": "COCCOc1ccc2c(c1)nc(NCCCCNC(=O)c1cccnc1)c1nnc(C)n12 [Example 417]",
    "pIC50": 7.22
  },
  {
    "compound": "Cc1nnc2c(NCCCCNC(=O)[C@@H](F)C(C)C)nc3cc(N4CCOCC4)ccc3n12 [Example 500]",
    "pIC50": 7.40
  }
]
